These measurements were taken from the supplement of paper PMC12667976.

B1: library; numbered along this chain (parent)
chain: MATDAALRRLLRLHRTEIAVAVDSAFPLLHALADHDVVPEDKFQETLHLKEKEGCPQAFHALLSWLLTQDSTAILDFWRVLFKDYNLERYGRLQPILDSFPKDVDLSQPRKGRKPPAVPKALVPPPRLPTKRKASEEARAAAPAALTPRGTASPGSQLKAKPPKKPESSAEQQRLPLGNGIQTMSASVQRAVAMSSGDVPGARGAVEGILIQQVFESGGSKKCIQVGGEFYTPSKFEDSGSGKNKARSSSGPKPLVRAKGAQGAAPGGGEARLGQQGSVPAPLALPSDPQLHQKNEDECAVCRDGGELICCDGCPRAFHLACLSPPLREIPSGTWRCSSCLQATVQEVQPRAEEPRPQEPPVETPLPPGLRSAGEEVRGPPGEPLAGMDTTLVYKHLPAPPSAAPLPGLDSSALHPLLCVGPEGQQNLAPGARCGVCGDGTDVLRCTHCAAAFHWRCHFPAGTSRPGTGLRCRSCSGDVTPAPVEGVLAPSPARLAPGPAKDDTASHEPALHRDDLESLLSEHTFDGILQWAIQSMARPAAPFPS

# Variants of: B1
# ASSAY_COMMENT: AIRE transcriptional activation functional score (insulin promoter-GFP; nonsense median 0, synonymous median 1) (normalised score); higher = higher AIRE activity (more reporter activation)
# CONDITIONS: with insulin promoter-GFP reporter in HEK293
Record form. Attribute: AIRE transcriptional activation functional score. Fill in for each entry.

Query: Need AIRE transcriptional activation functional score, item V123G
Reply: 1.3

Query: Please look up its AIRE transcriptional activation functional score: G408E
Reply: 1.05

Query: Request the reported AIRE transcriptional activation functional score associated with F459E
Reply: 0.803

Query: Suppose we examine the variant Q212C ; what AIRE transcriptional activation functional score value has been reported?
Reply: 1.01
